study system: SARS-CoV-2 3CL-protease (Severe acute respiratory syndrome coronavirus 2)
readout kind: IC50

Example results:
{"compound": "CC(C)(C)C[C@H](NC(=O)c1cc(OC(F)F)c2ncccc2c1)C(=O)N1C[C@]2(C[C@H]1C#N)C(=O)Nc1ccccc12 [Example 139]", "readout kind": "IC50", "observed value": "< 100 nM"}
{"compound": "CNCCC(=O)N(C)[C@@H](CC(C)(C)F)C(=O)N1C[C@]2(C[C@H]1C#N)C(=O)Nc1ccccc12 [Example 543]", "readout kind": "IC50", "observed value": "< 100 nM"}

Alright, here's another compound for you.
For the record CC(C)C[C@@H](C(=O)N1C[C@]2(C[C@H]1C#N)C(=O)Nc1ccccc12)N(C)C(=O)c1cnn(-c2ccccc2C(F)(F)F)c1 [Example 353] , what value of IC50 is listed for SARS-CoV-2 3CL-protease (Severe acute respiratory syndrome coronavirus 2)?
< 100 nM

* * *

Overview of reported pEC50 across a group of compounds:
Tested on: 229E human corona virus (hCoV)
method summary: 229E Live Virus Assay (MRC-5 cells, CPE read by ATPlite)
Format: cell-based, hCoV-229E
experimental conditions: Human coronavirus 229E, MRC5; hCoV-229E live virus in MRC-5 cells, MOI 0.05, CPE by ATPlite; run in duplicate
pEC50: −log10 of the molar value.

Which pEC50 value is on record for CN(C(=O)[C@H](O)c1ccc(F)cc1)[C@@H](CC1CC1)C(=O)N1C[C@]2(C[C@H]1C#N)C(=O)Nc1ccccc12 ?
> 7.00

Would you mind telling me what pEC50 value was observed for CN(C(=O)[C@@H](O)c1ccc(F)cc1)[C@@H](CC1CC1)C(=O)N1C[C@]2(C[C@H]1C#N)C(=O)Nc1ccccc12 ?
> 7.00

Report pEC50 for CC(C)C[C@@H](C(=O)N1C[C@]2(C[C@H]1C#N)C(=O)Nc1ccccc12)N(C)C(=O)c1cc(OC2CC2)c2c(c1)=NC(C1CC1)N=2 (stereo partly drawn) please.
6.00 to 7.00

* * *

study system: SARS-CoV-2 3CL-protease (Severe acute respiratory syndrome coronavirus 2)
method summary: SARS-CoV-2 3C-Like (3CL) Protease Fluorescence Assay (FRET)
Type: biochemical
experimental conditions: SARS-CoV-2 3CL-protease 10 nM, 30 min preincubation at RT, substrate 40 μM
pIC50: −log10 of the molar value.
readout kind: pIC50

{"molecule": "CN(C(=O)CCCN1CCOCC1)[C@@H](CC(C)(C)F)C(=O)N1C[C@]2(C[C@H]1C#N)C(=O)Nc1ccccc12", "readout kind": "pIC50", "observed value": "< 6.00"}
{"molecule": "CC(C)C[C@@H](C(=O)N1C[C@]2(C[C@H]1C#N)C(=O)Nc1ncccc12)N(C)C(=O)c1cc2c(F)cc(F)cc2[nH]1", "readout kind": "pIC50", "observed value": "> 7.00"}

Data request, read-out pIC50, for CC(C)C[C@@H](C(=O)N1C[C@]2(C[C@H]1C#N)C(=O)Nc1ccccc12)N(C)C(=O)c1ccc(Cl)c(C(F)(F)F)c1
> 7.00

Would you mind telling me what pIC50 value was observed for CC(C)C[C@@H](C(=O)N1C[C@]2(C[C@H]1C#N)C(=O)Nc1ccccc12)N(C)C(=O)c1cn(C)cn1 ?
6.00 to 7.00

Could you tell me which pIC50 is on file for CC(C)C[C@@H](C(=O)N1C[C@]2(C[C@H]1C(O)S(=O)(=O)O)C(=O)Nc1ccccc12)N(C)C(=O)c1cc2c(F)cc(F)c(F)c2[nH]1 (stereo partly drawn) ?
> 7.00

Endpoint output: pIC50 of CC(C)(C)C[C@H](NC(=O)Nc1ccc(F)cc1F)C(=O)N1C[C@]2(C[C@H]1C#N)C(=O)Nc1ccccc12 . Value?
6.00 to 7.00

* * *

Below, each entry is listed with its recorded IC50.
study system: SARS-CoV-2 3CL-protease (Severe acute respiratory syndrome coronavirus 2)

{"smiles entry": "Cc1ccc2cc(C(=O)N(C)[C@@H](CC3CC3)C(=O)N3C[C@]4(C[C@H]3C#N)C(=O)Nc3ccc(Cl)cc34)[nH]c2n1", "observed value": "< 100 nM"}
{"smiles entry": "CC(C)C[C@@H](C(=O)N1C[C@]2(C[C@H]1C#N)C(=O)Nc1ccccc12)N(C)C(=O)c1ccc2c(Cl)ccnc2c1", "observed value": "100 to 1000 nM"}
{"smiles entry": "N#C[C@@H]1C[C@@]2(CN1C(=O)[C@H](Cc1ccccc1F)NC(=O)c1cc3c(F)cc(F)cc3[nH]1)C(=O)Nc1ccc(Cl)cc12", "observed value": "< 100 nM"}

Recorded IC50 for CC(C)C[C@@H](C(=O)N1C[C@]2(C[C@H]1C#N)C(=O)Nc1ccccc12)N(C)C(=O)/C=C/c1ccccc1 with SARS-CoV-2 3CL-protease (Severe acute respiratory syndrome coronavirus 2), please?
< 100 nM

Under SARS-CoV-2 3CL-protease (Severe acute respiratory syndrome coronavirus 2): IC50 value of CCN(CC)CCC(=O)N(C)[C@@H](CC(C)(C)F)C(=O)N1C[C@]2(C[C@H]1C#N)C(=O)Nc1ccccc12 ?
< 100 nM

Checklist item: IC50 tested on SARS-CoV-2 3CL-protease (Severe acute respiratory syndrome coronavirus 2), entry Cc1ccc2cc(C(=O)N(C)[C@@H](CC(C)C)C(=O)N3C[C@]4(C[C@H]3C#N)C(=O)Nc3ccccc34)[nH]c2n1 , value?
< 100 nM

# returns recorded IC50 (system: SARS-CoV-2 3CL-protease (Severe acute respiratory syndrome coronavirus 2)) for CC(C)(C)C[C@H](NC(=O)c1cnn(CC(F)(F)F)c1)C(=O)N1C[C@]2(C[C@H]1C#N)C(=O)Nc1ccccc12
< 100 nM

* * *

Please consider the recorded pIC50 for UniProt P0DTD1 in what follows.
pIC50: −log10 of the molar value.

Some solved cases for reference:
{"smiles entry": "CC(C)C[C@@H](C(=O)N1C[C@]2(C[C@H]1C#N)C(=O)Nc1ccccc12)N(C)C(=O)c1cnc2c(C(F)(F)F)cccc2c1", "pIC50": "6.00 to 7.00"}
{"smiles entry": "CC(C)C[C@@H](C(=O)N1C[C@]2(C[C@H]1C#N)C(=O)Nc1ccccc12)N(C)C(=O)c1cc(OC2CC2)c2ncc(C3CC3)cc2c1", "pIC50": "6.00 to 7.00"}
{"smiles entry": "CC(C)C[C@@H](C(=O)N1C[C@]2(C[C@H]1C#N)C(=O)Nc1ccccc12)N(C)C(=O)c1nc2c(F)c(F)c(F)cc2[nH]1", "pIC50": "6.00 to 7.00"}
{"smiles entry": "CC(C)C[C@@H](C(=O)N1C[C@]2(C[C@H]1C#N)C(=O)Nc1ccccc12)N(C)C(=O)c1cccc(OC(F)(F)F)c1", "pIC50": "6.00 to 7.00"}
{"smiles entry": "N#C[C@@H]1C[C@@]2(CN1C(=O)[C@H](CC1CC1)NC(=O)c1cccc(OC(F)(F)F)c1)C(=O)Nc1ccc(Cl)cc12", "pIC50": "> 7.00"}
{"smiles entry": "CCCC[C@H](NC(=O)[C@H](O)c1ccc(F)cc1)C(=O)N1C[C@]2(C[C@H]1C#N)C(=O)Nc1ccccc12", "pIC50": "> 7.00"}
{"smiles entry": "CC(C)(C)C[C@H](NC(=O)Nc1ccccc1)C(=O)N1C[C@]2(C[C@H]1C#N)C(=O)Nc1ccccc12", "pIC50": "6.00 to 7.00"}
{"smiles entry": "Cc1cccc2c1NC(=O)[C@]21C[C@@H](C#N)N(C(=O)[C@H](CC(C)C)NC(=O)c2cc3c(F)cccc3[nH]2)C1", "pIC50": "> 7.00"}

I'm curious: which pIC50 was measured for N#C[C@@H]1C[C@@]2(CN1C(=O)[C@H](CC1CC1)NC(=O)c1c(Cl)cccc1Cl)C(=O)Nc1ccc(F)cc12 tested on UniProt P0DTD1?
6.00 to 7.00

* * *

study system: UniProtKB P0DTD1
Here, each record is paired with measured IC50 data.

{"smiles entry": "CC(C)C[C@@H](C(=O)N1C[C@]2(C[C@H]1C#N)C(=O)Nc1ccccc12)N(C)C(=O)c1cc(F)c2nn(C3CC3)cc2c1", "readout kind": "IC50", "observed value": "0.1 to 1 µM"}
{"smiles entry": "N#C[C@@H]1C[C@@]2(CN1C(=O)[C@H](COCc1cnn[nH]1)NC(=O)c1cc3c(F)cc(F)cc3[nH]1)C(=O)Nc1ccccc12", "readout kind": "IC50", "observed value": "> 1 µM"}
{"smiles entry": "CN(C(=O)c1cc2c(F)cc(F)cc2[nH]1)[C@@H](CC(C)(C)F)C(=O)N1C[C@]2(C[C@H]1C#N)C(=O)Nc1ccc(Cl)cc12", "readout kind": "IC50", "observed value": "< 0.1 µM"}
{"smiles entry": "COc1cc(C(=O)N(C)[C@@H](CC(C)C)C(=O)N2C[C@]3(C[C@H]2C#N)C(=O)Nc2ccccc23)cc2cn(C3(C)CC3)nc12", "readout kind": "IC50", "observed value": "< 0.1 µM"}
{"smiles entry": "CN(C(=O)c1cn(C2CCC2)nn1)[C@@H](Cc1ccccc1)C(=O)N1C[C@]2(C[C@H]1C#N)C(=O)Nc1ccccc12", "readout kind": "IC50", "observed value": "< 0.1 µM"}

I would be grateful if you could share the reported IC50 for CC(C)C[C@@H](C(=O)N1C[C@]2(C[C@H]1C#N)C(=O)Nc1ccccc12)N(C)C(=O)c1nc2ccccc2s1 .
0.1 to 1 µM
